Reference source: ChEMBL document CHEMBL1811802

System: EL4
ASSAY EXPLANATION: Cytotoxicity against mouse EL4 cells after 3 days by MTT assay
Format: functional, cell-based
ASSAY SETUP: EL4, 72 h
pIC50: −log10 of the molar value.
PROPERTY NAME: pIC50

Nc1ncnc2c1c(-c1cn[nH]c1)cn2[C@@H]1O[C@H](CO)[C@@H](O)[C@H]1O : < 5.00
Nc1ncnc2c1c(-c1ccoc1)cn2[C@@H]1O[C@H](CO)[C@@H](O)[C@H]1O : < 5.00
Nc1ncnc2c1c(-c1ccsc1)cn2[C@@H]1O[C@H](CO)[C@@H](O)[C@H]1O : < 5.00

====

ASSAY EXPLANATION: Cytostatic activity against human Hs578 cells after 5 days by SRB assay
Assay type: functional
ASSAY SETUP: Hs578, 120 h
PROPERTY NAME: GI50

Nc1ncnc2c1c(-c1cccc3ccccc13)cn2[C@@H]1O[C@H](CO)[C@@H](O)[C@H]1O : > 10000 nM
Nc1ncnc2c1c(-c1ncc[nH]1)cn2[C@@H]1O[C@H](CO)[C@@H](O)[C@H]1O : 1 nM
Nc1ncnc2c1c(-c1ccccc1)cn2[C@@H]1O[C@H](CO)[C@@H](O)[C@H]1O : > 20000 nM
Nc1ncnc2c1c(-c1nccs1)cn2[C@@H]1O[C@H](CO)[C@@H](O)[C@H]1O : 15 nM
Nc1ncnc2c1c(-c1c[nH]cn1)cn2[C@@H]1O[C@H](CO)[C@@H](O)[C@H]1O : 2 nM
Nc1ncnc2c1c(-c1ccoc1)cn2[C@@H]1O[C@H](CO)[C@@H](O)[C@H]1O : 21 nM
Nc1ncnc2c1ccn2[C@@H]1O[C@H](CO)[C@@H](O)[C@H]1O : 98 nM
Nc1ncnc2c1c(-c1ccsc1)cn2[C@@H]1O[C@H](CO)[C@@H](O)[C@H]1O : 50 nM
